Source listed as patent US20240116985A1.

// reported pIC50 per item
# Study system: full-length beta-Catenin (Uniprot ID P35222) (Homo sapiens (Human)) (UniProt P35222)
# Method summary: fluorescence polarization competition; displacement of 5FAM-TCF4(10-53) from full-length beta-catenin
pIC50: −log10 of the molar value. Starred links: 1 amine or outer side, 2 acyl side, 3 side chain; linkers in the order of their positions; H or OH if unused. Positions of bridges follow the written chain, without caps; N, C: chain ends. Non-standard residues stand in square brackets, D forms with d. Primed or numbered codes have the meaning given here. PyrS2″ = (S)-3-amino-1-((pent-4-en-1-yloxy)carbonyl)pyrrolidine-3-carboxylic acid (stapling residue), C=CCCCOC(=O)N1CC[C@@](N[*:1])(C(=O)[*:2])C1; PyrS2 = (S)-3-amino-1-((pent-4-en-1-yloxy)carbonyl)pyrrolidine-3-carboxylic acid, C=CCCCOC(=O)N1CC[C@@](N[*:1])(C(=O)[*:2])C1; B5(27) = 2-amino-2-(pent-4-en-1-yl)hept-6-enoic acid (two alkene side-chain arms), C=CCCCC(CCCC=C)(N[*:1])C(=O)[*:2]; B5(12) = 2-amino-2-(pent-4-en-1-yl)hept-6-enoic acid (two olefin side chains), C=CCCCC(CCCC=C)(N[*:1])C(=O)[*:2]; F2PipNva = (S)-2-amino-5-(4,4-difluoropiperidin-1-yl)pentanoic acid, O=C([C@H](CCCN1CCC(F)(F)CC1)N[*:1])[*:2]; B5(3) = 2,2-bis(4-pentenyl)glycine (stitching residue), C=CCCCC(CCCC=C)(N[*:1])C(=O)[*:2]; Bta = N[C@@H](Cc1csc2ccccc12)C(=O)O; αAllylPro = C=CC[C@@]1(C(=O)O)CCCN1; tBuAla = CC(C)(C)C[C@H](N)C(=O)O; 3Thi = N[C@@H](Cc1ccsc1)C(=O)O; Cha = N[C@@H](CC1CCCCC1)C(=O)O

| Binder | pIC50 |
| --- | --- |
| Ac-[αAllylPro]D[Cha][B5(3)]DDAAFS[PyrS2″]F[Bta]S-NH2 (staple 1-4, 4-11) [I-1100] | 7.80 |
| Ac-[αAllylPro]D[tBuAla][B5(27)]DDA[F2PipNva]FL[PyrS2][3Thi][Bta]Q-NH2 (staple 1-4, 4-11) [I-1502] | 7.47 |
| Ac-[αAllylPro]D[tBuAla][B5(12)]DNAAFF[PyrS2][3Thi][Bta]Q-NH2 (staple 1-4, 4-11) [I-855] | 7.66 |
